Kindly state apparent KD of MS2 coat protein for each of the entries shown.
test system: MS2 coat protein; test: apparent KD of MS2 coat protein; designed switch direction (-1 OFF switch, 1 ON switch): -1; higher = weaker reporter binding; settings: Eterna round: R95; input ligand: FMN 200 uM
One number for each entry, in nM.

Recorded results for 4 sequences are shown here.
| residueCodes | measuredTarget | unitDescriptor | apparent KD of MS2 coat protein |
| --- | --- | --- | --- |
| AGUACUAACACGAAAGUGUUAGUACAAUAAGCUUGUAGAACAUGAGGAUCACCCAUGUCCUCAUAAGCUCGUCUUAU [Mat - Sensor v3 - Turn-off var 2 - D48] (puzzle: Sensor v3, turn-off variant 2) | MS2 coat protein | nM | 52.1 |
| GUGUGCUGAGGAUAUACAUAGGAAUAGAAUAGAAUAGAAUGACAUGAGGAUCACCCAUGUAGAAGGCAGAGUGU [Excluse me!! 13 - Jieux - Exclusion 2] (puzzle: Exclusion 2) | MS2 coat protein | nM | 39.6 |
| CCGGAAAUGCAGGAUAUCGUAUCGGAUACGAUACGAGAAGGGUAGACAUGAGGAUCACCCAUGUGUCCUACCGG [Fiskers Ex 6 - 50] (puzzle: Exclusion 6) | MS2 coat protein | nM | 110 |
| GCAGGCGUCUAGGCUCGUCUUAUUUUGAGAAGAUUGAUAACAUGAGGAUCACCCAUGUUUGUGGGAGAGUUGGAGUG [JR_SV3TOV2_Sub014] (puzzle: Sensor v3, turn-off variant 2) | MS2 coat protein | nM | 159 |

Then there is this sequence:
What does the record list as apparent KD of MS2 coat protein for UAUCGGCGGACCGAGGCUUUUUGCUCGUCUUAUGCUACAACAUGAGGAUCACCCAUGUGGUGGUGGUCCGUUGUAGU [JL ViennaUCT Bitein mod 9] (puzzle: Sensor v3, turn-off variant 2) ?
19.7

---

Give measured apparent KD of MS2 coat protein for each item. Keep answers brief.
test system: MS2 coat protein; test: apparent KD of MS2 coat protein; designed switch direction (-1 OFF switch, 1 ON switch): -1; higher = weaker reporter binding; details: input ligand: none

| residueCodes | assayResult |
| --- | --- |
| CAUGAUUGGCGAGGAUAUUGAUCUAGUUGGCGACGAGAAGGCGCCUGUCACAUGAGGAUCACCCAUGUGAAUCUGGUGAAAGAG [Ex NG1 #89] (Eterna round: R96, puzzle: Exclusion NG 1) | 25.9 nM |
| CAGCUGAAAGUGAGGAUAUCUAGAGCCUCGGCUCUAGAGAAGGCACAUGAGGAUCACCCAUGUCUCAACAGCUG [BmEx4/1-A2] (Eterna round: R97, puzzle: Brourd's mod of Exclusion 4) | 19.6 nM |
| UAGCAUUGCCUUUGGUAGUGCUUUACAUGAGGAUCACCCAUGUAGGAUAUGGUAGGCAAAGCUUACCAGAAGGACAUGAUAAUU [Mat - Exclusion NG 3 - Mod of JL - D11] (Eterna round: R96, puzzle: Exclusion NG 3) | 76 nM |
| CUAGCGAUUGUAGGAUAUCGGACUGUUUCAGUCUGAGAAGGACAUGAGGAUCACCCAUGUGAUGCUACGUGAGUAGCACGCUAG [JL ENG1 3.85] (Eterna round: R96, puzzle: Exclusion NG 1) | 30.5 nM |
| CUGGAGUCAGGAUAUGACGCAGUCCGCCCAAAGGGCGGAAAUCAGAAGGGACUUGAGGAUCACCCAAGUAAAAG [Gecear] (Eterna round: R97, puzzle: Exclusion 4) | 31.4 nM |

For every listed record, write down its apparent KD of MS2 coat protein.
1. GCUGGUCAAGGAUAUAUAUGACGUGCUUCGGCACGAAGGUCACAUGAGGAUCACCCAUGUAGAAGGUGACCAGC [E2/9-C1] (Eterna round: R97, puzzle: Exclusion 2)
2. UGUAUUAGGUCAGGAUAUACAUGAGGAUCACCCAUGUACAUGGAGCGAGUACAGUAUCAUGCAAGGUAGAAGGGACAGUCGACG [success! :D] (Eterna round: R96, puzzle: Exclusion NG 2)

1: 39.7 nM; 2: 24.3 nM

Required: apparent KD of MS2 coat protein, one value per sequence below.
1. UUGUUUUCCGCAGGAUAUGCUCCUCCAUUACUAGCAGAAGGGCGUUGAACAUGAGGAUCACCCAUGUAUGUAAUUGCUUAUUGC [JR_ExcNG1_Sub073] (Eterna round: R96, puzzle: Exclusion NG 1)
2. CCCAUGCCCGAGGAUAUGCUGUACAAAAGUACUGCAGAAGGCGGGACAUGAGGAUCACCCAUGUGGCGAAAGCC [Omei Ex G7] (Eterna round: R97, puzzle: Exclusion 6)
3. CGCAUGUGAGGAUAUUAGUAGUAGUCAGAAUAGACUAUUACUGAGAAGGUACAUGAGGAUCACCCAUGUAUGCG [Eli x4 4.22] (Eterna round: R97, puzzle: Exclusion 4)

18.9 nM
124 nM
21.5 nM

---

test system: MS2 coat protein; assay: apparent KD of MS2 coat protein; designed switch direction (-1 OFF switch, 1 ON switch): -1; higher = weaker reporter binding; conditions: input ligand: none
Kindly state apparent KD of MS2 coat protein for each of the entries shown.
One number for each entry, in nM.

Lab note: each sequence below needs its apparent KD of MS2 coat protein filled in.
1. UAUUUUGCAAGCAGAUCCCACAUGAGGAUCACCCAUGUGCUCGUCUUAUAAGGUUCUGUGACGAUAGUCACGGUACC [mod -Eli mod] (Eterna round: R97, puzzle: Sensor, turn-off variant 1)
2. UUUCUGUGAGGAUAUCAGUAGUAAAUAAAUAAAAUUACUACUGAGAAGGCACAUGAGGAUCACCCAUGUUCCUU [salish99_ex3_r3_093] (Eterna round: R96, puzzle: Exclusion 4)
3. CUGUACUGAGGAUAUACAUGAGGAUCACCCAUGUGUACCAGCUAGGAAACUAGCAAAAGUAGAAGGCAGUACAG [Mat - Exclusion 3 - Eli Mod - D62] (Eterna round: R97, puzzle: Exclusion 3)

[46.1, 16.5, 13.3]

Give one value of apparent KD of MS2 coat protein per listed sequence.
1. UUGUUAUAUGUAGGAUAUGCGUAUUGUUAUUAUGCAGAAGGACAUGAGGAUCACCCAUGUAUAUUAUUAUUAUAUAUUAUAUAU [Title] (Eterna round: R96, puzzle: Exclusion NG 1)
2. AAUUUACAUGAGGAUCACCCAUGUGAGGAUAUAUAUAUAUAUUUGUUAUUGUAUGUUUGUAGAAGGCGCGUGAU [JR_Exc1_Sub033] (Eterna round: R97, puzzle: Exclusion 1)
3. ACUCACGCAGGAUAUACAUGAGGAUCACCCAUGUUCAAAGGGCGCGGGAACAUCGUCUGUAGAAGGGCGAACAU [jl-ex3-4.62 ViennaUCT mod] (Eterna round: R97, puzzle: Exclusion 3)
4. AGAUCUAGGACAGGAUAUACAGAUGGCUUCAUCGAAGAUGAAGCCAUCACAUGAGGAUCACCCAUGUAGAAGGGUCCUAGAUCA [Omei Exc(NG) 2Av4] (Eterna round: R96, puzzle: Exclusion NG 2)
5. CACAUGGGAACAUGAGGAUCACCCAUGUGAUAGAAAGGUAUGGAGGAUAUCAUACCAUCGCCGUGUGAGAAGGUCAGGCCAACA [Eternabot solution 46] (Eterna round: R96, puzzle: Exclusion NG 3)
6. GAAUAGGGAGGAUAUCCAAUAUAUGACAUGAGGAUCACCCAUGUUUCCACUCGUACCUCCGGAGAAGGCCCAUAAA [Ex5 #4] (Eterna round: R97, puzzle: Exclusion 5)

1: 27.4; 2: 39.2; 3: 29; 4: 13.2; 5: 388; 6: 19.9

For the sequence shown here, ACAUGAGGAUCACCCAUGUCAGGCGGGUCCUCUCCGGCUGUUGAGGAUAUAGUUCGGUAUCCGCGCUAGAAGGUGAGGGCCGGC [Aenatbe mod 21] (Eterna round: R96, puzzle: Exclusion NG 3) , give the reported apparent KD of MS2 coat protein.
17.1

---

system: MS2 coat protein; experiment: apparent KD of MS2 coat protein, switch OFF state (with FMN for OFF switches, without FMN for ON switches); designed switch direction (-1 OFF switch, 1 ON switch): 1; higher = weaker reporter binding; conditions: FMN input: 0 or 200 uM; Eterna round: R93 (includes R88 designs)
Would you kindly list apparent KD of MS2 coat protein for each of these sequences?
One number for each entry, in nM.

These solved cases illustrate the format of a correct answer.
| residueCodes | measuredTarget | assayResult |
| --- | --- | --- |
| AACAAUCUAUCUGAGGAUAUCAAGUCAAAGACAUGAGGAUCACCCAUGUGCAGGAAAACUGCACUUGAGAAGGCAGAUAGAUUGA [SS2: 1109] | MS2 coat protein | 9.63 |
| AAAAAACAUGAGGAUCACCCAUGUGCAAAAUUCGCAGGAUAUUUUUCUUUUAAAUGAGAGGGAGAAGGGUGUAAAA [Nob's Hobby 23 - Jieux - Same State 1] | MS2 coat protein | 22.1 |
| AGAAGACAUGAGGAUCACCCAUGUGGGAAUAUGGGAGGAUAUACAAAGACGAGAGUCAGAGUAGAAGGCCUAGGUA [salish99-ss1-109] | MS2 coat protein | 99.5 |
| UAGGGAACAGGGUAGGAUAUGCAUGGUCGUACAUGAGGAUCACCCAUGUAGCCUAGAAAAUAAAUGCAGAAGGACCAAAAGAAAA [Ononmaesra] | MS2 coat protein | 48.3 |
| AAUGAACAUGAGGAUCACCCAUGUUCUAACAGUUGAGGAUAUGUGGGUGAAAAUAGCACGGCAGAAGGCGAGUGUA [SameState1 Malc#20] | MS2 coat protein | 54.6 |

Kindly review the next sequence as well.
Fill in the blank: the reported apparent KD of MS2 coat protein of AAACCACAUGAGGAUCACCCAUGUGAAAUACACAUAGGAUAUGCGAAAAGAAACAAAGAAGCAGAAGGGUGAAAAA [75%, Ex sub1, 17] is ____.
41.3
